# study_target: His-tagged recombinant human Gal-3 (hGal-3) (Homo sapiens)
# Sequence (P17931 whole entry): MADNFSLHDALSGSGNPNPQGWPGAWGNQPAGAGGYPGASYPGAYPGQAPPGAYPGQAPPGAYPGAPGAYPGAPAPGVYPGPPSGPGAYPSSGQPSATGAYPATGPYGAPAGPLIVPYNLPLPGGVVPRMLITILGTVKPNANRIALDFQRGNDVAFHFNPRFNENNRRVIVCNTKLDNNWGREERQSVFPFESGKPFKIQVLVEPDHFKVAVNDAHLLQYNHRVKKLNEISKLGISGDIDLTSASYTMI
# assay_explanation: Gal-3 HTRF assay (His-tagged hGal-3 / B-ASF)
# conditions: hGal-3 15 nM, B-ASF 15 nM, room temperature, three replicates
IC50 overview

molecule	IC50 / nM
Cc1nc([C@H]2O[C@@H](CO)[C@@H](O)[C@@H](n3cc(-c4cc(F)c(Cl)c(F)c4)nn3)[C@@H]2OCC(=O)N(C)CCCCN(C)C(=O)CO[C@@H]2[C@@H](n3cc(-c4cc(F)c(Cl)c(F)c4)nn3)[C@@H](O)[C@@H](CO)O[C@H]2c2nc(C)nn2-c2cc(Cl)ccc2Cl)n(-c2cc(Cl)ccc2Cl)n1	5
Cc1nc([C@H]2O[C@@H](CO)[C@@H](O)[C@@H](n3cc(-c4cc(F)c(Cl)c(F)c4)nn3)[C@@H]2OCCCCCCCCO[C@@H]2[C@@H](n3cc(-c4cc(F)c(Cl)c(F)c4)nn3)[C@@H](O)[C@@H](CO)O[C@H]2c2nc(C)nn2-c2cc(Cl)ccc2Cl)n(-c2cc(Cl)ccc2Cl)n1	2000
Cc1nc([C@H]2O[C@@H](CO)[C@@H](O)[C@@H](n3cc(-c4cc(F)c(Cl)c(F)c4)nn3)[C@@H]2OCC(=O)N2CCCN(C(=O)CO[C@@H]3[C@@H](n4cc(-c5cc(F)c(Cl)c(F)c5)nn4)[C@@H](O)[C@@H](CO)O[C@H]3c3nc(C)nn3-c3cc(Cl)ccc3Cl)CC2)n(-c2cc(Cl)ccc2Cl)n1	4
Cc1nc(C2OC(CO)C(O)C(n3cc(-c4cc(F)c(F)c(F)c4)nn3)C2OCC(=O)NCCCCCNC(=O)COC2C(c3nc(C)nn3-c3cc(Cl)ccc3Cl)OC(CO)C(O)C2n2cc(-c3cc(F)c(F)c(F)c3)nn2)n(-c2cc(Cl)ccc2Cl)n1 (stereo not shown)	1
